Tested on: Mycobacterium tuberculosis variant bovis BCG
protocol: microbe, parasite or virus in culture
Type: functional

| molecule | subject.of.test | MIC90 |
| --- | --- | --- |
| O=C(Nc1ccccc1-c1nc(Cl)cs1)OCCOC1CCNCC1 | Mycobacterium tuberculosis variant bovis BCG | 7.6 µM |
| O=C(NCCNCc1cc(-c2cncc3ccccc23)cs1)c1ccc(Cl)cc1 | Mycobacterium tuberculosis variant bovis BCG | 8.4 µM |
| FC(F)(F)c1ccc2c(N3CCNCC3)ncc(-c3ccsc3)c2n1 | Mycobacterium tuberculosis variant bovis BCG | 9.4 µM |
| Cc1nc2c(C)cccn2c1C(=O)NCc1ccc2c(c1)OCO2 | Mycobacterium tuberculosis variant bovis BCG | 9.5 µM |
| O=C(COc1ccc(Br)cc1)NNC(=O)c1cccs1 | Mycobacterium tuberculosis variant bovis BCG | 2.4 µM |
| Cc1ccc(NC(=O)C2COc3ccccc3C2)cc1Cl (stereo unspecified) | Mycobacterium tuberculosis variant bovis BCG | 8.5 µM |
